Overview of recorded pIC50 for various molecules
- tested-target: IIbIIIa receptor (Homo sapiens, UniProt P05106+P08514)
- Sequence (P08514 32-1039): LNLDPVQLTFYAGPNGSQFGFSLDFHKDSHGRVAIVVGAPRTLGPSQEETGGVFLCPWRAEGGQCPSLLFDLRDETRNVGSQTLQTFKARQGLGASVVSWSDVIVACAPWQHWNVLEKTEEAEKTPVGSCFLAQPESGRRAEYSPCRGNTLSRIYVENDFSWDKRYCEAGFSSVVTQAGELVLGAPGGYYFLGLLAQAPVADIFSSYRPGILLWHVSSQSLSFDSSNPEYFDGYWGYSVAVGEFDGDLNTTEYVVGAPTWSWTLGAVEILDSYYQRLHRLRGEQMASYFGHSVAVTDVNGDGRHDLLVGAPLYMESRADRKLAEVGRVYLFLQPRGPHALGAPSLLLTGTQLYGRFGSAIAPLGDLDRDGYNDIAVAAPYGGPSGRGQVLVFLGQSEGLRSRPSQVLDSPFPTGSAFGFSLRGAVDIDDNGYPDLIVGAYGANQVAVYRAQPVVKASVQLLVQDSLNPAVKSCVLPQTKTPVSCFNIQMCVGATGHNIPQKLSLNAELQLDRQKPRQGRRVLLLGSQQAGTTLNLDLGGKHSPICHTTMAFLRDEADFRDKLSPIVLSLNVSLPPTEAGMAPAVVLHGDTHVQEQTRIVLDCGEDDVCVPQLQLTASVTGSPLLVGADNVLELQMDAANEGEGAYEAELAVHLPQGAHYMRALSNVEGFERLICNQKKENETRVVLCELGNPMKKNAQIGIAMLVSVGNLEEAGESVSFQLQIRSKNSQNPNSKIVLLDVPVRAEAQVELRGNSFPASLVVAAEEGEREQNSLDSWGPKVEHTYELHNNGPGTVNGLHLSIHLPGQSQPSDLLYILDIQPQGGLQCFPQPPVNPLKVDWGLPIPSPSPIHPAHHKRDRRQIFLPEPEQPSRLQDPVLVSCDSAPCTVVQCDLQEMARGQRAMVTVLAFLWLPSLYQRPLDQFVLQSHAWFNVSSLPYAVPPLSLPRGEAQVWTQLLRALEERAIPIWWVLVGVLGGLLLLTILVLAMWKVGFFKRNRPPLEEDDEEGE
- Sequence (P05106 27-788): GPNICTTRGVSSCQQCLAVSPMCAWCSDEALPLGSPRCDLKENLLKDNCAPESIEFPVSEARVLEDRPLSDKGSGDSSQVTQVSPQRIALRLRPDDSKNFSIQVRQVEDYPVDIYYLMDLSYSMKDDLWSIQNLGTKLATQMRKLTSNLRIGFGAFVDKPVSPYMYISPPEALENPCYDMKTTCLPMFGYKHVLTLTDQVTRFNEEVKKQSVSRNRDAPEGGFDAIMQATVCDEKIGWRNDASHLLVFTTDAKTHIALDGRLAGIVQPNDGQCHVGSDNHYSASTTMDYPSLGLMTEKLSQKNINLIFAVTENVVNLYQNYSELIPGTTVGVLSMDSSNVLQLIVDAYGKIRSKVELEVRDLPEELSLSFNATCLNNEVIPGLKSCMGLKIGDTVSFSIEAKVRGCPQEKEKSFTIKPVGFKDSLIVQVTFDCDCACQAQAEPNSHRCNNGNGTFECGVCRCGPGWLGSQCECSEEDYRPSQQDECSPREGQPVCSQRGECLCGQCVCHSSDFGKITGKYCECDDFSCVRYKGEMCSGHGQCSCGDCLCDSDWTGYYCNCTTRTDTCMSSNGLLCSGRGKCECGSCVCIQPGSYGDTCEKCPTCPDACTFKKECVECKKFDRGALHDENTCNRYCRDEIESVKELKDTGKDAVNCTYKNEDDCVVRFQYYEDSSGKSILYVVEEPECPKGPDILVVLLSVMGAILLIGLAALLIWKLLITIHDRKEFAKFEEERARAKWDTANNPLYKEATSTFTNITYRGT
- test: biochemical
- settings: read-out: IC50 (Ratio to GRGDV IC50)
pIC50: −log10 of the molar value. Starred links: 1 amine or outer side, 2 acyl side, 3 side chain; linkers in the order of their positions; H or OH if unused. Non-standard residues stand in square brackets, D forms with d. Residues, ends and D or L forms follow the SMILES beside them. Pro(trans-4-guanidino) = N=C(N)N[C@H]1CN[C@H](C(=O)O)C1; Pro(cis-4-guanidino) = NC(N)=N[C@@H]1CN[C@H](C(=O)O)C1; X4 = N=C(N)NC[C@@H]1C[C@@H](C(=O)[*:2])N([*:1])C1; X1 = N=C(N)NC[C@@H]1C[C@H](C(=O)[*:2])N([*:1])C1; X2 = N=C(N)NC[C@H]1C[C@@H](C(=O)[*:2])N([*:1])C1; X5 = N=C(N)NC[C@H]1C[C@H](C(=O)[*:2])N([*:1])C1; X3 = N=C(N)N[C@H]1C[C@H](C(=O)[*:2])N([*:1])C1
measurement-kind: pIC50

# molecule, tested-target, value-measured
rows = [
    ("CC(C)[C@H](NC(=O)[C@H](CC(=O)O)NC(=O)CNC(=O)[C@H]1C[C@H](CNC(=N)N)CN1)C(=O)O", "IIbIIIa receptor (Homo sapiens, UniProt P05106+P08514)", 8.19),
    ("CC(C)[C@H](NC(=O)[C@H](CC(=O)O)NC(=O)CNC(=O)[C@@H]1C[C@H](NC(=N)N)CN1C(=O)CN)C(=O)O [##STR55##] (H-G[Pro(cis-4-guanidino)]GDV-OH)", "IIbIIIa receptor (Homo sapiens, UniProt P05106+P08514)", 6.25),
    ("CC(C)[C@H](NC(=O)[C@H](CC(=O)O)NC(=O)CNC(=O)[C@H]1C[C@H](CNC(=N)N)CN1C(=O)CN)C(=O)O [##STR56##] (H-G[X5]GDV-OH)", "IIbIIIa receptor (Homo sapiens, UniProt P05106+P08514)", 7.43),
    ("CC(C)[C@H](NC(=O)[C@H](CC(=O)O)NC(=O)CNC(=O)[C@@H]1C[C@@H](NC(=N)N)CN1C(=O)CN)C(=O)O [##STR60##] (H-G[Pro(trans-4-guanidino)]GDV-OH)", "IIbIIIa receptor (Homo sapiens, UniProt P05106+P08514)", 5.77),
    ("CC(C)[C@H](NC(=O)[C@H](CC(=O)O)NC(=O)CNC(=O)[C@@H]1C[C@H](CNC(=N)N)CN1)C(=O)O", "IIbIIIa receptor (Homo sapiens, UniProt P05106+P08514)", 8.00),
    ("CC(C)[C@H](NC(=O)[C@H](CC(=O)O)NC(=O)CNC(=O)[C@@H]1C[C@@H](CNC(=N)N)CN1C(=O)CN)C(=O)O [##STR53##] (H-G[X4]GDV-OH)", "IIbIIIa receptor (Homo sapiens, UniProt P05106+P08514)", 7.52),
    ("CC(C)[C@H](NC(=O)[C@H](CC(=O)O)NC(=O)CNC(=O)[C@H]1C[C@@H](CNC(=N)N)CN1C(=O)CN)C(=O)O [##STR57##] (H-G[X1]GDV-OH)", "IIbIIIa receptor (Homo sapiens, UniProt P05106+P08514)", 7.60),
    ("CC(C)[C@H](NC(=O)[C@H](CC(=O)O)NC(=O)CNC(=O)[C@@H]1C[C@H](NC(=N)N)CN1)C(=O)O [##STR59##] (H-[Pro(cis-4-guanidino)]GDV-OH)", "IIbIIIa receptor (Homo sapiens, UniProt P05106+P08514)", 6.81),
    ("CC(C)[C@H](NC(=O)[C@H](CC(=O)O)NC(=O)CNC(=O)[C@@H]1C[C@H](CNC(=N)N)CN1C(=O)CN)C(=O)O [##STR58##] (H-G[X2]GDV-OH)", "IIbIIIa receptor (Homo sapiens, UniProt P05106+P08514)", 7.00),
    ("CC(C)[C@H](NC(=O)[C@H](CC(=O)O)NC(=O)CNC(=O)[C@H]1C[C@H](NC(=N)N)CN1C(=O)CN)C(=O)O [##STR54##] (H-G[X3]GDV-OH)", "IIbIIIa receptor (Homo sapiens, UniProt P05106+P08514)", 6.65),
]
